- assay explanation: Systemic toxicity in CT26 cells xenografted BALB/c mouse tumor model assessed as reduction in lymphocyte count in peripheral blood at 20 nmol, IT and measured after 24 hrs by hematological analysis
- Format: cell-based
- condition label: in vivo, other

compound: CCCCc1nc2c(N)nc3ccccc3c2n1Cc1ccc(CNC(=O)NCCCCCC(=O)NCc2ccc(O)c(OC)c2)cc1
Activity: Non-Toxic

compound: CCCCc1nc2c(N)nc3ccccc3c2n1Cc1ccc(CNC(=O)NCCCNC(=O)/C=C/c2ccc(O)c(OC)c2)cc1
Activity: Toxic

compound: CCCCc1nc2c(N)nc3ccccc3c2n1Cc1ccc(CNC(=O)c2ccc(-c3cccc(O)c3)cc2O)cc1
Activity: Non-Toxic

compound: CCCCCCCCCCCCCCCCCC(=O)NCCCCOn1c(CCCC)nc2c(N)nc3ccccc3c21 [TELRATOLIMOD]
Activity: Non-Toxic

---

- assay explanation: Systemic toxicity in CT26 cells xenografted BALB/c mouse tumor model assessed as increase in serum TNF-alpha level at 20 nmol, IT and measured after 2 hrs
- Format: cell-based
- condition label: in vivo, other

smiles: CCCCc1nc2c(N)nc3ccccc3c2n1Cc1ccc(CNC(=O)NCCc2ccc(O)c(O)c2)cc1
Activity: Non-Toxic
//
smiles: CCCCc1nc2c(N)nc3ccccc3c2n1Cc1ccc(CNC(=O)NCCCNC(=O)/C=C/c2ccc(O)c(OC)c2)cc1
Activity: Toxic
//
smiles: CCCCCCCCCCCCCCCCCC(=O)NCCCCOn1c(CCCC)nc2c(N)nc3ccccc3c21
Activity: Non-Toxic

---

- assay explanation: Systemic toxicity in CT26 cells xenografted BALB/c mouse tumor model assessed as increase in serum TNF-alpha level at 20 nmol, IT and measured after 2 hrs
- Format: cell-based
- condition label: in vivo, other

smiles: CCCCc1nc2c(N)nc3ccccc3c2n1Cc1ccc(CNC(=O)c2cccc(-c3cccc(O)c3)c2)cc1
Activity: Non-Toxic
//
smiles: CCCCc1nc2c(N)nc3ccccc3c2n1Cc1ccc(CNC(=O)c2ccc(-c3cccc(O)c3)cc2O)cc1
Activity: Non-Toxic
//
smiles: CCCCc1nc2c(N)nc3ccccc3c2n1Cc1ccccc1
Activity: Toxic
//
smiles: CCOCc1nc2c(N)nc3ccccc3c2n1CC(C)(C)O
Activity: Toxic
//
smiles: CCCCc1nc2c(N)nc3ccccc3c2n1Cc1ccc(CNC(=O)NCCCCCC(=O)NCc2ccc(O)c(OC)c2)cc1
Activity: Non-Toxic

---

- assay explanation: Systemic toxicity in CT26 cells xenografted BALB/c mouse tumor model assessed as reduction in white blood count in peripheral blood at 20 nmol, IT and measured after 24 hrs by hematological analysis
- Type: cell-based
- condition label: in vivo, other

smiles: CCCCCCCCCCCCCCCCCC(=O)NCCCCOn1c(CCCC)nc2c(N)nc3ccccc3c21
Activity: Non-Toxic
--
smiles: CCCCc1nc2c(N)nc3ccccc3c2n1Cc1ccc(CNC(=O)NCCc2ccc(O)c(O)c2)cc1
Activity: Non-Toxic
--
smiles: CCOCc1nc2c(N)nc3ccccc3c2n1CC(C)(C)O
Activity: Toxic
--
smiles: CCCCc1nc2c(N)nc3ccccc3c2n1Cc1ccccc1
Activity: Toxic
--
smiles: CCCCc1nc2c(N)nc3ccccc3c2n1Cc1ccc(CNC(=O)NCCCNC(=O)/C=C/c2ccc(O)c(OC)c2)cc1
Activity: Toxic
--
smiles: CCCCc1nc2c(N)nc3ccccc3c2n1Cc1ccc(CNC(=O)NCCCCCC(=O)NCc2ccc(O)c(OC)c2)cc1
Activity: Non-Toxic
--
smiles: CCCCc1nc2c(N)nc3ccccc3c2n1Cc1ccc(CNC(=O)c2ccc(-c3cccc(O)c3)cc2O)cc1
Activity: Non-Toxic
--
smiles: CCCCc1nc2c(N)nc3ccccc3c2n1Cc1ccc(CNC(=O)c2cccc(-c3cccc(O)c3)c2)cc1
Activity: Non-Toxic

---

- tested on: TLR7 and TLR8 (Mus musculus) (UniProt P58681+P58682)
- Sequence (P58681 whole entry, looked up): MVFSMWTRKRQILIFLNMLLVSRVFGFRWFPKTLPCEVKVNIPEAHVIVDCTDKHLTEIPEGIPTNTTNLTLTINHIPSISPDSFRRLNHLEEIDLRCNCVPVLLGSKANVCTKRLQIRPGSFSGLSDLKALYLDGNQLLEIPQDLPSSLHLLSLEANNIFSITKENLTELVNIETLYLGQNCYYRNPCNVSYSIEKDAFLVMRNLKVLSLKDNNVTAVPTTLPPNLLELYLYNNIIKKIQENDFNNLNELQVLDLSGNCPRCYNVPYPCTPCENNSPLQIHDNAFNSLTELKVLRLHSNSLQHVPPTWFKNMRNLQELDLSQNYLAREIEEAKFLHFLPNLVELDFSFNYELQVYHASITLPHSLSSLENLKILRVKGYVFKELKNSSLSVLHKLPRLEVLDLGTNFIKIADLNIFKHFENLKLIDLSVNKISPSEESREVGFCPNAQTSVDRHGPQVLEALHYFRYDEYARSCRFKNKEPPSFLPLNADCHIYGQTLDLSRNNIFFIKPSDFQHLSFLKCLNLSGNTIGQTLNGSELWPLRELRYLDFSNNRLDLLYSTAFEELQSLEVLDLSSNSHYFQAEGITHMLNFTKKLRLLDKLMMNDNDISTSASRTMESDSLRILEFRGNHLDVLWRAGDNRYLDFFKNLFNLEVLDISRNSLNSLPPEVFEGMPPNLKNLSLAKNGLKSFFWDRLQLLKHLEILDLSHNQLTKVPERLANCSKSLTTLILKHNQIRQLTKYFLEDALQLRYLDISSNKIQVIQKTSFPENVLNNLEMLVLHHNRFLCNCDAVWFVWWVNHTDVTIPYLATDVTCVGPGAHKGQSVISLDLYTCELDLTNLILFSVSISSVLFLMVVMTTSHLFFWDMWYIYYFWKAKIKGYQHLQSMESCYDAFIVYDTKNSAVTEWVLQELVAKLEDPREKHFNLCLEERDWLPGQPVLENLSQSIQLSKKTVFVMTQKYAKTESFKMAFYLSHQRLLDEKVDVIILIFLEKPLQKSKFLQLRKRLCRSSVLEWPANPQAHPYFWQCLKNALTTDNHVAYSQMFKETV
- Sequence (P58682 whole entry, looked up): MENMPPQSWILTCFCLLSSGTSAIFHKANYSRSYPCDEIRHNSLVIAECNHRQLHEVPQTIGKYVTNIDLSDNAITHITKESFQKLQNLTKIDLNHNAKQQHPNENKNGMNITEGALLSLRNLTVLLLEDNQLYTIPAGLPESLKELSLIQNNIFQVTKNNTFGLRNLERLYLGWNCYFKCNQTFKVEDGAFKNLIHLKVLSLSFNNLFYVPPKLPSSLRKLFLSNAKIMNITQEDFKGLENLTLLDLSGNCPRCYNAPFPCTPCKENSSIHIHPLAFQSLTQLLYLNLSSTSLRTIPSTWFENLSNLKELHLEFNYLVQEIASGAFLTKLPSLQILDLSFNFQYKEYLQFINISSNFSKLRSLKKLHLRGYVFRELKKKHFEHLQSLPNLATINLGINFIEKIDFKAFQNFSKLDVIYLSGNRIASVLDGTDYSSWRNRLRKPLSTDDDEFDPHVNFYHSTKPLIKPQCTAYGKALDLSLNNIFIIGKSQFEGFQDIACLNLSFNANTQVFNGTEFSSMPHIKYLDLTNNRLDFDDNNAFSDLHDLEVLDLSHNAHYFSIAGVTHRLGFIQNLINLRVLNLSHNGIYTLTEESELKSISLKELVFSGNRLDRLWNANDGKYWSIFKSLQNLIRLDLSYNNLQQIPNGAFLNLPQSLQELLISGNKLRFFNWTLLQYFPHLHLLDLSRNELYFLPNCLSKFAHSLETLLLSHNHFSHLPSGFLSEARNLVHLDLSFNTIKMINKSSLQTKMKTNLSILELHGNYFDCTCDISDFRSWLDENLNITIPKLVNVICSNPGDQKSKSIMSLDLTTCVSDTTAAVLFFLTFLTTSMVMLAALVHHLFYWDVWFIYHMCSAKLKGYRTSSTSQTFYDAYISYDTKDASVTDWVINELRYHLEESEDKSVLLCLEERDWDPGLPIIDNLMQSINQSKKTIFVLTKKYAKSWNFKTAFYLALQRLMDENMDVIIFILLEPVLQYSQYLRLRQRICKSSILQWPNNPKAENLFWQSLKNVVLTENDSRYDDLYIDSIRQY
- assay explanation: Agonist activity at TLR7/8 in mouse RAW-blue cells assessed as immune activation by measuring induction of NFkappaB activation at 500 nM measured after 24 hrs by quanti-blue SEAP reporter gene-based assay
- Format: cell-based
- condition label: filed as agonist
Calls of active or inactive are those of the source. No cut-off for these calls is given here.

smiles: CCCCc1nc2c(N)nc3ccccc3c2n1Cc1ccc(CNC(=O)c2ccc(-c3cccc(O)c3)cc2O)cc1
Activity: Active

smiles: CCCCc1nc2c(N)nc3ccccc3c2n1Cc1ccc(CNC(=O)NCCCCCC(=O)NCc2ccc(O)c(OC)c2)cc1
Activity: Active

smiles: CCCCc1nc2c(N)nc3ccccc3c2n1Cc1ccc(CNC(=O)NCCCNC(=O)/C=C/c2ccc(O)c(OC)c2)cc1
Activity: Active

smiles: CCCCc1nc2c(N)nc3ccccc3c2n1Cc1ccc(CNC(=O)NCCc2ccc(O)c(O)c2)cc1
Activity: Active

smiles: CCCCc1nc2c(N)nc3ccccc3c2n1Cc1ccc(CNC(=O)c2cc(-c3ccc(O)cc3)ccc2O)cc1
Activity: Active

smiles: CCCCc1nc2c(N)nc3ccccc3c2n1Cc1ccc(CNC(=O)c2cccc(-c3cccc(O)c3)c2)cc1
Activity: Active

smiles: CCCCc1nc2c(N)nc3ccccc3c2n1Cc1ccccc1
Activity: Active

---

- assay explanation: Toxicity in C57BL/6 mouse BMDC cells assessed as induction of inflammation by measuring increase in IL-6 secretion at 200 nM measured after 8 hrs by ELISA
- Format: cell-based
- condition label: 0.2 µM

smiles: CCCCc1nc2c(N)nc3ccccc3c2n1Cc1ccc(CNC(=O)NCCCCCC(=O)NCc2ccc(O)c(OC)c2)cc1
Activity: Non-Toxic
--
smiles: CCCCc1nc2c(N)nc3ccccc3c2n1Cc1ccc(CNC(=O)c2ccc(-c3cccc(O)c3)cc2O)cc1
Activity: Toxic
--
smiles: CCCCc1nc2c(N)nc3ccccc3c2n1Cc1ccc(CNC(=O)c2cc(-c3ccc(O)cc3)ccc2O)cc1
Activity: Toxic
--
smiles: CCCCc1nc2c(N)nc3ccccc3c2n1Cc1ccc(CNC(=O)c2cccc(-c3cccc(O)c3)c2)cc1
Activity: Non-Toxic
--
smiles: CCCCc1nc2c(N)nc3ccccc3c2n1Cc1ccccc1
Activity: Toxic
--
smiles: CCCCc1nc2c(N)nc3ccccc3c2n1Cc1ccc(CNC(=O)NCCc2ccc(O)c(O)c2)cc1
Activity: Non-Toxic
--
smiles: CCCCc1nc2c(N)nc3ccccc3c2n1Cc1ccc(CNC(=O)NCCCNC(=O)/C=C/c2ccc(O)c(OC)c2)cc1
Activity: Non-Toxic

---

- assay explanation: Systemic toxicity in CT26 cells xenografted BALB/c mouse tumor model assessed as reduction in lymphocyte count in peripheral blood at 20 nmol, IT and measured after 24 hrs by hematological analysis
- Type: cell-based
- condition label: in vivo, other

compound: CCCCc1nc2c(N)nc3ccccc3c2n1Cc1ccc(CNC(=O)c2cc(-c3ccc(O)cc3)ccc2O)cc1
Activity: Non-Toxic
//
compound: CCCCc1nc2c(N)nc3ccccc3c2n1Cc1ccc(CNC(=O)c2cccc(-c3cccc(O)c3)c2)cc1
Activity: Non-Toxic
//
compound: CCCCc1nc2c(N)nc3ccccc3c2n1Cc1ccc(CNC(=O)NCCc2ccc(O)c(O)c2)cc1
Activity: Non-Toxic
//
compound: CCOCc1nc2c(N)nc3ccccc3c2n1CC(C)(C)O [RESIQUIMOD]
Activity: Toxic
//
compound: CCCCc1nc2c(N)nc3ccccc3c2n1Cc1ccccc1
Activity: Toxic

---

- assay explanation: Systemic toxicity in CT26 cells xenografted BALB/c mouse tumor model assessed as increase in serum IL-6 level at 20 nmol, IT and measured after 2 hrs
- Format: cell-based
- condition label: in vivo, other

smiles: CCCCc1nc2c(N)nc3ccccc3c2n1Cc1ccc(CNC(=O)NCCc2ccc(O)c(O)c2)cc1
Activity: Non-Toxic

smiles: CCCCc1nc2c(N)nc3ccccc3c2n1Cc1ccc(CNC(=O)NCCCCCC(=O)NCc2ccc(O)c(OC)c2)cc1
Activity: Non-Toxic

smiles: CCOCc1nc2c(N)nc3ccccc3c2n1CC(C)(C)O
Activity: Toxic

smiles: CCCCc1nc2c(N)nc3ccccc3c2n1Cc1ccc(CNC(=O)c2cc(-c3ccc(O)cc3)ccc2O)cc1
Activity: Non-Toxic

smiles: CCCCc1nc2c(N)nc3ccccc3c2n1Cc1ccccc1
Activity: Toxic

smiles: CCCCCCCCCCCCCCCCCC(=O)NCCCCOn1c(CCCC)nc2c(N)nc3ccccc3c21
Activity: Non-Toxic

smiles: CCCCc1nc2c(N)nc3ccccc3c2n1Cc1ccc(CNC(=O)NCCCNC(=O)/C=C/c2ccc(O)c(OC)c2)cc1
Activity: Toxic

smiles: CCCCc1nc2c(N)nc3ccccc3c2n1Cc1ccc(CNC(=O)c2cccc(-c3cccc(O)c3)c2)cc1
Activity: Non-Toxic

smiles: CCCCc1nc2c(N)nc3ccccc3c2n1Cc1ccc(CNC(=O)c2ccc(-c3cccc(O)c3)cc2O)cc1
Activity: Non-Toxic
